molecular target: Human MC1R (Homo sapiens); construct: endogenous in cells; host or cells: human melanoma cell line HBL; test: MCR agonist measurement (cAMP measurement), human MC1R agonist activity in human melanoma cell line HBL; format: cell-based; conditions: Intrinsic Activity; vehicle cAMP = 0%, αMSH at 10^-6 M = 100%; HBL cells
Sequence (Q01726 whole entry): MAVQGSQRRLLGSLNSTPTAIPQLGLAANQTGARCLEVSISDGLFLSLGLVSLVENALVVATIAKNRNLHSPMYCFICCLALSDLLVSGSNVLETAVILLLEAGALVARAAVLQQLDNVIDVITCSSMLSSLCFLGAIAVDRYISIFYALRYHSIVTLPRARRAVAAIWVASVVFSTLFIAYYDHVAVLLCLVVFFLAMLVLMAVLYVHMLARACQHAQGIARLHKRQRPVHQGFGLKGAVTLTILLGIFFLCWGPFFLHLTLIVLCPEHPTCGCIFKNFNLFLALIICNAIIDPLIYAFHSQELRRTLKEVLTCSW
propertyLabel: Human MC1R IA % (%)

{"compound": "COC[C@H]1CN(C(=O)[C@]2(F)CN(C3CCCCC3)C[C@H]2c2ccc(OC)cc2)C[C@@H]1c1ccc(C(F)(F)F)cc1N1CCC(C(=O)O)CC1 [Example 27]", "Human MC1R IA % [%]": 78}
{"compound": "COC[C@@H]1C[C@@H](c2ccc(C(F)(F)F)cc2N(C)CCCC(=O)O)CN1C(=O)[C@]1(F)CN([C@H]2CC[C@H](OC)CC2)C[C@H]1c1ccc(OC)cc1 [Example 115]", "Human MC1R IA % [%]": 85}
{"compound": "COc1ccc([C@@H]2CN(C(C)(C)C)C[C@@]2(F)C(=O)N2CCC(c3ccc(C(F)(F)F)cc3N3CCN(C(C)=O)CC3)CC2)cc1.Cl.Cl [Example 282]", "Human MC1R IA % [%]": 79}

The values you see were collected from patent US9981960B2.
